Measured relative viability, listed per entry for reference.
- Test system: NCI-H1355
- Experiment Summary: relative viability (nuclei count vs DMSO), 5 days (fraction); higher = more cells survive
- Condition Summary: first compound 0.253 µM
Readout Type: relative viability

Compound	Recorded Number
C=C1C(=O)O[C@@H](CCCCCCCC)[C@@H]1C(=O)O [C-75] + O=C(c1cc(Cc2n[nH]c(=O)c3ccccc23)ccc1F)N1CCN(C(=O)C2CC2)CC1 [Olaparib] (partner 8 µM)	0.767
Oc1nc(-c2ccc(C(F)(F)F)cc2)nc2c1CSCC2 [XAV939] + COc1cccc2cc(-c3nc([C@H]4CC[C@H](C(=O)O)CC4)n4ncnc(N)c34)[nH]c12 [OSI-027] (partner 0.5 µM)	0.353
C=C1C(=O)O[C@@H](CCCCCCCC)[C@@H]1C(=O)O [C-75] + Cc1nc(Nc2ncc(C(=O)Nc3c(C)cccc3Cl)s2)cc(N2CCN(CCO)CC2)n1 [Dasatinib] (partner 0.075 µM)	0.613
Oc1nc(-c2ccc(C(F)(F)F)cc2)nc2c1CSCC2 [XAV939] + NC(=O)Nc1cc(-c2cccc(F)c2)sc1C(=O)N[C@H]1CCCNC1 [AZD7762] (partner 0.2 µM)	0.613

* * *

Measured relative viability, listed per entry for reference.
- Test system: NCI-H2228
- Experiment Summary: relative viability (nuclei count vs DMSO), 5 days (fraction); higher = more cells survive
- Condition Summary: first compound 0.253 µM
Readout Type: relative viability

Molecule	Recorded Number
Oc1nc(-c2ccc(C(F)(F)F)cc2)nc2c1CSCC2 [XAV939] + CS(=O)(=O)N1CCN(Cc2cc3nc(-c4cccc5[nH]ncc45)nc(N4CCOCC4)c3s2)CC1 [Pictilisib] (partner 1 µM)	0.304
C=C1C(=O)O[C@@H](CCCCCCCC)[C@@H]1C(=O)O [C-75] + N=C(N)NC(=N)NCCc1ccccc1 [Phenformin] (partner 250 µM)	0.304
Oc1nc(-c2ccc(C(F)(F)F)cc2)nc2c1CSCC2 [XAV939] + CCNC(=O)c1noc(-c2cc(C(C)C)c(O)cc2O)c1-c1ccc(CN2CCOCC2)cc1 [Luminespib] (partner 0.01 µM)	0.158
C=C1C(=O)O[C@@H](CCCCCCCC)[C@@H]1C(=O)O [C-75] + C[C@]1(O)C[C@@H](c2nc(-c3ccc4ccc(-c5ccccc5)nc4c3)c3c(N)nccn32)C1 [Linsitinib] (partner 1 µM)	1.04
Oc1nc(-c2ccc(C(F)(F)F)cc2)nc2c1CSCC2 [XAV939] + O=C(CCCCCCC(=O)Nc1ccccc1)NO [Vorinostat] (partner 1 µM)	0.589

* * *

Measured relative viability, listed per entry for reference.
- Tested on: A-427
- Experiment Summary: relative viability (nuclei count vs DMSO), 5 days (fraction); higher = more cells survive
- Condition Summary: first compound 0.1581 µM

Compound	relative viability
CC1(C)CCC(c2ccc(Cl)cc2)=C(CN2CCN(c3ccc(C(=O)NS(=O)(=O)c4ccc(N[C@H](CCN5CCOCC5)CSc5ccccc5)c(S(=O)(=O)C(F)(F)F)c4)cc3)CC2)C1 [Navitoclax] + Cc1cc(Nc2cc(N3CCN(C)CC3)nc(Sc3ccc(NC(=O)C4CC4)cc3)n2)n[nH]1 [Tozasertib] (partner 0.1 µM)	0.197
CC1(C)CCC(c2ccc(Cl)cc2)=C(CN2CCN(c3ccc(C(=O)NS(=O)(=O)c4ccc(N[C@H](CCN5CCOCC5)CSc5ccccc5)c(S(=O)(=O)C(F)(F)F)c4)cc3)CC2)C1 [Navitoclax] + Nc1ncn([C@H]2C[C@H](O)[C@@H](CO)O2)c(=O)n1 [Decitabine] (partner 2 µM)	0.521
CC1(C)CCC(c2ccc(Cl)cc2)=C(CN2CCN(c3ccc(C(=O)NS(=O)(=O)c4ccc(N[C@H](CCN5CCOCC5)CSc5ccccc5)c(S(=O)(=O)C(F)(F)F)c4)cc3)CC2)C1 [Navitoclax] + Cc1nc(Nc2ncc(C(=O)Nc3c(C)cccc3Cl)s2)cc(N2CCN(CCO)CC2)n1 [Dasatinib] (partner 0.075 µM)	0.734

* * *

- Tested on: A549
- Experiment Summary: relative viability (nuclei count vs DMSO), 5 days (fraction); higher = more cells survive
- Condition Summary: first compound 0.08 µM

Compound	relative viability
C=C1C(=O)O[C@@H](CCCCCCCC)[C@@H]1C(=O)O [C-75] + CC1(C)CCC(c2ccc(Cl)cc2)=C(CN2CCN(c3ccc(C(=O)NS(=O)(=O)c4ccc(N[C@H](CCN5CCOCC5)CSc5ccccc5)c(S(=O)(=O)C(F)(F)F)c4)cc3)CC2)C1 [Navitoclax] (partner 0.5 µM)	1.12
Oc1nc(-c2ccc(C(F)(F)F)cc2)nc2c1CSCC2 [XAV939] + C[C@]1(O)C[C@@H](c2nc(-c3ccc4ccc(-c5ccccc5)nc4c3)c3c(N)nccn32)C1 [Linsitinib] (partner 1 µM)	0.696
Oc1nc(-c2ccc(C(F)(F)F)cc2)nc2c1CSCC2 [XAV939] + CS(=O)(=O)N1CCN(Cc2cc3nc(-c4cccc5[nH]ncc45)nc(N4CCOCC4)c3s2)CC1 [Pictilisib] (partner 1 µM)	0.629

* * *

Measured relative viability, listed per entry for reference.
- System: NCI-H1944
- Experiment Summary: relative viability (nuclei count vs DMSO), 5 days (fraction); higher = more cells survive
- Condition Summary: first compound 2.53 µM

Compound	relative viability
Oc1nc(-c2ccc(C(F)(F)F)cc2)nc2c1CSCC2 [XAV939] + CS(=O)(=O)CCNCc1ccc(-c2ccc3ncnc(Nc4ccc(OCc5cccc(F)c5)c(Cl)c4)c3c2)o1 [Lapatinib] (partner 2 µM)	0.679
Oc1nc(-c2ccc(C(F)(F)F)cc2)nc2c1CSCC2 [XAV939] + Cc1nc(Nc2ncc(C(=O)Nc3c(C)cccc3Cl)s2)cc(N2CCN(CCO)CC2)n1 [Dasatinib] (partner 0.075 µM)	0.218
C=C1C(=O)O[C@@H](CCCCCCCC)[C@@H]1C(=O)O [C-75] + O=C(c1cc(Cc2n[nH]c(=O)c3ccccc23)ccc1F)N1CCN(C(=O)C2CC2)CC1 [Olaparib] (partner 8 µM)	0.392
Oc1nc(-c2ccc(C(F)(F)F)cc2)nc2c1CSCC2 [XAV939] + Nc1nc2[nH]cc(CCc3ccc(C(=O)N[C@@H](CCC(=O)O)C(=O)O)cc3)c2c(=O)[nH]1 [Pemetrexed] (partner 0.2 µM)	0.501

* * *

- Test system: NCI-H3122
- Experiment Summary: relative viability (nuclei count vs DMSO), 5 days (fraction); higher = more cells survive
- Condition Summary: first compound 0.5 µM

Molecule	relative viability
CC1(C)CCC(c2ccc(Cl)cc2)=C(CN2CCN(c3ccc(C(=O)NS(=O)(=O)c4ccc(N[C@H](CCN5CCOCC5)CSc5ccccc5)c(S(=O)(=O)C(F)(F)F)c4)cc3)CC2)C1 [Navitoclax] + CS(=O)(=O)N1CCN(Cc2cc3nc(-c4cccc5[nH]ncc45)nc(N4CCOCC4)c3s2)CC1 [Pictilisib] (partner 1 µM)	0.55
CC1(C)CCC(c2ccc(Cl)cc2)=C(CN2CCN(c3ccc(C(=O)NS(=O)(=O)c4ccc(N[C@H](CCN5CCOCC5)CSc5ccccc5)c(S(=O)(=O)C(F)(F)F)c4)cc3)CC2)C1 [Navitoclax] + N=C(N)NC(=N)NCCc1ccccc1 [Phenformin] (partner 250 µM)	0.391
CC1(C)CCC(c2ccc(Cl)cc2)=C(CN2CCN(c3ccc(C(=O)NS(=O)(=O)c4ccc(N[C@H](CCN5CCOCC5)CSc5ccccc5)c(S(=O)(=O)C(F)(F)F)c4)cc3)CC2)C1 [Navitoclax] + CC(C)C[C@H](NC(=O)[C@H](Cc1ccccc1)NC(=O)c1cnccn1)B(O)O [Bortezomib] (partner 0.002 µM)	1.01
CC1(C)CCC(c2ccc(Cl)cc2)=C(CN2CCN(c3ccc(C(=O)NS(=O)(=O)c4ccc(N[C@H](CCN5CCOCC5)CSc5ccccc5)c(S(=O)(=O)C(F)(F)F)c4)cc3)CC2)C1 [Navitoclax] + O=C(CCCCCCC(=O)Nc1ccccc1)NO [Vorinostat] (partner 1 µM)	0.839
CC1(C)CCC(c2ccc(Cl)cc2)=C(CN2CCN(c3ccc(C(=O)NS(=O)(=O)c4ccc(N[C@H](CCN5CCOCC5)CSc5ccccc5)c(S(=O)(=O)C(F)(F)F)c4)cc3)CC2)C1 [Navitoclax] + Nc1nc2[nH]cc(CCc3ccc(C(=O)N[C@@H](CCC(=O)O)C(=O)O)cc3)c2c(=O)[nH]1 [Pemetrexed] (partner 0.2 µM)	0.209
CC1(C)CCC(c2ccc(Cl)cc2)=C(CN2CCN(c3ccc(C(=O)NS(=O)(=O)c4ccc(N[C@H](CCN5CCOCC5)CSc5ccccc5)c(S(=O)(=O)C(F)(F)F)c4)cc3)CC2)C1 [Navitoclax] + Nc1ncn([C@H]2C[C@H](O)[C@@H](CO)O2)c(=O)n1 [Decitabine] (partner 2 µM)	0.444
CC1(C)CCC(c2ccc(Cl)cc2)=C(CN2CCN(c3ccc(C(=O)NS(=O)(=O)c4ccc(N[C@H](CCN5CCOCC5)CSc5ccccc5)c(S(=O)(=O)C(F)(F)F)c4)cc3)CC2)C1 [Navitoclax] + Cc1nc(Nc2ncc(C(=O)Nc3c(C)cccc3Cl)s2)cc(N2CCN(CCO)CC2)n1 [Dasatinib] (partner 0.075 µM)	0.682

Hey, just so you know, these numbers are from the supplement of paper PMC10307832.
